In what follows, each item is paired with its pIC50 for IRAK4 (Homo sapiens (Human)).
# pIC50 = -log10(concentration in molar units)

Observe how each entry below is paired with its result.
• CC(C)Oc1cc2c(O[C@@H]3CCCN(C(=O)CC#N)C3)ncc(C#CC3(O)CCOCC3)c2cc1C(N)=O [Compound I-91] = 7.68
• CC(C)Oc1cc2c(OC[C@@H]3CC(F)(F)C(=O)N3)ncc(Br)c2cc1C(N)=O [Compound I-2] = 8.36
• CC(C)Oc1cc2c(O[C@@H]3CCCN(C(=O)CC#N)C3)ncc(C#CCC3CCOCC3)c2cc1C(N)=O [Compound I-90] = 7.69

Consider the record given below.
Challenge: # query: pIC50 of entry CCO[C@H]1CC[C@@H](C#Cc2cnc(O[C@@H]3CCCN(C(=O)CC#N)C3)c3cc(OC(C)C)c(C(N)=O)cc23)CC1 [Compound I-99]
Response given: 7.64

###

# Test system: TNF-α in human PBMCs
# ASSAY EXPLANATION: R848-induced TNF-α in human PBMCs Assay
# Format: cell-based
# CONDITION SET: PBMC; human PBMCs, 65 ng/mL R848, 4 hours, TNF-α ELISA; read-out: TNFα (PBMC, R848) (IC50)
MEASUREMENT TYPE: IC50 (µM)
Report the value in µM with no unit label.

Challenge: API: value(readout=IC50, system=TNF-α in human PBMCs) for record CC(C)Oc1cc2c(O[C@@H]3CCCN(C(=O)OC(C)(C)C)C3)ncc(-c3cnn(C4CC4)c3)c2cc1C(N)=O
Response given: 38.2

###

# TEST TARGET: UniProt Q9NWZ3
# ASSAY EXPLANATION: IRAK4 ADP-Glo Assay
# Type: biochemical
# CONDITION SET: MBP substrate
Listed below: pIC50 values for each entry.
# pIC50 = -log10(concentration in molar units)

Observe how each entry below is paired with its result.
• CC(C)Oc1cc2c(OC[C@@H]3CCC(=O)N3)ncc(-c3cnn(CCN4CCOCC4)c3)c2cc1C(N)=O [Compound I-38] = 7.68
• CC(C)Oc1cc2c(OC[C@@H]3CCC(=O)N3)ncc(C#CC3CN(C)C3)c2cc1C(N)=O [Compound I-26] = 8.59
• CC(C)Oc1cc2c(OC[C@@H]3CCC(=O)N3)ncc(C#CC(C)(C)CO)c2cc1C(N)=O [Compound I-5] = 6.92
• CC(C)Oc1cc2c(OC[C@@H]3CCC(=O)N3)ncc(C#CC3CNC3)c2cc1C(N)=O [Compound I-25] = 8.48

Challenge: # query: pIC50 of entry CC(C)Oc1cc2c(OC[C@@H]3CC(F)(F)C(=O)N3)ncc(C#CC3CCOCC3)c2cc1C(N)=O [Compound I-49]
Response given: 8.12

Challenge: // query: CC(C)Oc1cc2c(O[C@@H]3CCCNC3)ncc(-c3cnn(CCC4CCOCC4)c3)c2cc1C(N)=O [Compound I-113]
Response given: 6.44

Challenge: // query: CC(C)Oc1cc2c(OC[C@@H]3CCC(=O)N3)ncc(C#C[C@H]3C[C@@H](N(C)C)C3)c2cc1C(N)=O [Compound I-31]
Response given: 8.46

Challenge: // query: CC(C)Oc1cc2c(OC[C@@H]3CC(F)(F)C(=O)N3)ncc(C#CCC3CCOCC3)c2cc1C(N)=O [Compound I-50]
Response given: 8.32

Challenge: // query: CC(C)Oc1cc2c(OC[C@@H]3CC(F)(F)C(=O)N3)ncc(-c3cnn(C4CCC4)c3)c2cc1C(N)=O [Compound I-68]
Response given: 8.02
